# MEASUREMENT TARGET: T1, His-tagged mouse BCMA (Acro Biosystems, BCA-M52H3) (mouse, UniProt O88472 1-49)
# T1 construct: Bought protein; not shown: His tag
# T1 chain: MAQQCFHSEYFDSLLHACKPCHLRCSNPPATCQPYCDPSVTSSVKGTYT
# EXPERIMENTAL DETAILS: BLI, His-tagged mouse BCMA on HIS1K tip
READOUT KIND: Mouse BCMA response
Form: value (number only, do not type unit).

Worked examples, 3 binders total:
539-SP2-H3 hIgG1 (antibody, V domains shown, Human-mouse chimeric antibody, human IgG1 format) VH: EVQLQQSGPELVKPGASVKMSCKASGYTFTSYVIHWVKQKPGQGLEWIGYVLPYNDVIKYNEKFKGKATLTSDKSSSTAYMDLSSLTSEDSAVYYCARWGDFDEGIWFPYWGQGTLVTVSA VL: DVLMTQTPLSLPVSLGDHASVSCRSSQSIVHTDGNTYLEWYLQKPGQSPKLLIYKVSNRFSGVPDRFSGSGSGTDFTLKISRVEAEDLGVYYCFQGSHVPWTFGGGTKLEIKR	0.29
539-SP7-F4 hIgG1 (antibody, V domains shown, Human-mouse chimeric antibody, human IgG1 format) VH: EVQLQQSGPELVKPGASMKISCKASGYSFTGYIMNWVKQSHGKNLEWIGLINPYNGDSIYNQKFKGKATLTVDKSSSTAYMELFSLTSEDSTVYYCAAGEEFAYWGQGTLVTVSA VL: DIQMTQTSSSLSASLGDRVTISCRASQDISIYLNWFQQKPDGTVKLLIYFTSRLHPGVPSRFSASGSGTDYSLTISHLEHEDIATYFCQQGNTLPRTFGGGTKVELKR	0.371
539-SP5-D7 hIgG1 (antibody, V domains shown, Human-mouse chimeric antibody, human IgG1 format, lambda light chain; also called [4]) VH: EVMLVDSGGNLVKPGGSLKLSCAASGFTFSNYVISWVRQTPEKRLEWVATISTVGTNTYYPDSVRGRFTISRDNAENTLYLQMSSLRSEDTAIYYCSRHKYGYDDPSYAMDYWGQGTSVTVSS VL: QLVLTQSSSASFSLGASAKLTCTLSSQHSTYTIEWYQQQPLKPPKYVMELKKDGSHSTGDGIPDRFSGSSSGADRYLSISNIQAEDEAIYICGVGDTVKEQFVYVFGGGTKVTVLG	1.01

Proceeding to the next binder to report its Mouse BCMA response.
So what's the measured Mouse BCMA response for this one? J6M0 (antibody, V domains shown, also called J6M0-hIgG1; anti-BCMA) VH: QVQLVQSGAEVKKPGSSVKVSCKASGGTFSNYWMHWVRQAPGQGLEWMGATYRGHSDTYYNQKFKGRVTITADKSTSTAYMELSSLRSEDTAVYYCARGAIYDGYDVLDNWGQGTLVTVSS VL: DIQMTQSPSSLSASVGDRVTITCSASQDISNYLNWYQQKPGKAPKLLIYYTSNLHSGVPSRFSGSGSGTDFTLTISSLQPEDFATYYCQQYRKLPWTFGQGTKLEIK
0.0423
